B1: POU domain, class 3, transcription factor 1, residues 247 to 324; numbered along this chain, Q03052 (parent)
chain: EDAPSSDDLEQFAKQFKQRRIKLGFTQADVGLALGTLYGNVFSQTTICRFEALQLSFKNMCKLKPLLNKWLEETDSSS

Variants of: B1
test: abundance fitness (aPCA) (normalised: wild type 0, dead -1); higher = more abundant; growth selection in yeast, the domain comes from the species named
experimental.context: Homo sapiens
endpoint: abundance fitness

| residue.change | endpoint | result |
| --- | --- | --- |
| L71P | abundance fitness | -1.1 |
| M60G | abundance fitness | -0.673 |
| Q44D | abundance fitness | 0.195 |
| T26N | abundance fitness | -0.436 |
| F25K | abundance fitness | -0.095 |
| L37S | abundance fitness | -0.261 |
| C61H | abundance fitness | -0.357 |
| E72R | abundance fitness | -0.079 |
| C48I | abundance fitness | 0.094 |
| L53V | abundance fitness | -0.055 |
| L23T | abundance fitness | -0.647 |
| L37N | abundance fitness | -0.333 |
| S76Q | abundance fitness | 0.106 |
| L32Y | abundance fitness | -0.148 |
| Q44T | abundance fitness | 0.118 |
| L63W | abundance fitness | -0.605 |
| S78F | abundance fitness | -0.199 |
| E73H | abundance fitness | -0.03 |
| K58F | abundance fitness | -0.433 |
| A28H | abundance fitness | -0.24 |
| L34A | abundance fitness | -0.42 |
| V41M | abundance fitness | 0.03 |
| K69R | abundance fitness | -0.058 |
| S56T | abundance fitness | -0.287 |
| F42H | abundance fitness | -0.226 |
| D75E | abundance fitness | 0.109 |
| F57A | abundance fitness | -0.142 |
| Q54R | abundance fitness | -0.195 |
| E73M | abundance fitness | -0.012 |
| A33K | abundance fitness | -0.067 |
| S77Y | abundance fitness | 0.044 |
| L63S | abundance fitness | -0.791 |
| T74Y | abundance fitness | -0.156 |
| V41N | abundance fitness | 0.116 |
| P65Q | abundance fitness | -0.451 |
| K62D | abundance fitness | -0.268 |
| L63K | abundance fitness | -0.887 |
| G35Y | abundance fitness | -0.313 |
| P65S | abundance fitness | -0.179 |
| K22C | abundance fitness | -0.347 |
| G31W | abundance fitness | -0.444 |
| L37H | abundance fitness | 0.133 |
| Q27F | abundance fitness | -0.325 |
| T26L | abundance fitness | -0.699 |
| L23E | abundance fitness | -0.47 |
| T74E | abundance fitness | -0.121 |
